# System Name: T1, human PD-L1 (construct not stated) (human, UniProt Q9NZQ7 19-239, limits assumed)
# T1 construct: also called B7-H1 (PD-L1); PD-L1 protein
# T1 sequence (Q9NZQ7 19-239 limits assumed): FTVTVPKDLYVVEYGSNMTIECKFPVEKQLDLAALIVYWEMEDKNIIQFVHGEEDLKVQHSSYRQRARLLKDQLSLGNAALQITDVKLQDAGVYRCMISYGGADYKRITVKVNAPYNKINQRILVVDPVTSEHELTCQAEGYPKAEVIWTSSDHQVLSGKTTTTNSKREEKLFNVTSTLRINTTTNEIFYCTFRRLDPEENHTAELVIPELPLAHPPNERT
# Assay Summary: BLI Octet Red 96, affinity ranking
Attribute Measured: kon (M⁻¹ s⁻¹)
Record the value in M⁻¹ s⁻¹, omitting the unit from your answer.

Binder: Hu1210-20 (antibody, V domains shown, Hu1210 VH.4 x Vk.1a; human gamma 1 / kappa constant domains) VH: EVQLVESGGGLVQPGGSLRLSCAASGFTFSSYDMSWVRQAPGKGLEWVSTISDGGGYIYYSDSVKGRFTISRDNAKNSLYLQMNSLRDEDTAVYYCAREFGKRYALDYWGQGTTVTVSS VL: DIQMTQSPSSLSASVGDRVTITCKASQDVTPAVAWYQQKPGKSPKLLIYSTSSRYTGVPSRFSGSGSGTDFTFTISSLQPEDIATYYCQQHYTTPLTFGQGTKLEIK
Attribute Measured: kon
Value Units: M⁻¹ s⁻¹
Numeric Readout: 88700

Query string: Reported kon for Hu1210-14 (antibody, V domains shown, Hu1210 VH.3a x Vk.1; human gamma 1 / kappa constant domains) VH: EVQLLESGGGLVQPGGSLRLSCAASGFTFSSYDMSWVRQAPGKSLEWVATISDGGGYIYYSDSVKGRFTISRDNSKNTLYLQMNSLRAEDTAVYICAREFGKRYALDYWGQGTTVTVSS VL: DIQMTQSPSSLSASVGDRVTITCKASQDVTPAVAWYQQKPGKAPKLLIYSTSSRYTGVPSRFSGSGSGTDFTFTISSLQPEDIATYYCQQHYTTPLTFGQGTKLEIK : what is it?
Result string: 84100
